// each record: one item and its uPA potency relative to amiloride (in words) for UniProt:P00749
assayEndpoint: uPA potency relative to amiloride (in words)

N=C(N)NC(=O)c1nc(-c2ccc(C(F)(F)F)cc2)c(N)nc1N : did not improve potency
N=C(N)NC(=O)c1nc(-c2ccccc2)c(N)nc1N : did not improve potency
CSc1ccc(-c2nc(C(=O)NC(=N)N)c(N)nc2N)cc1 : did not improve potency

----------
For each entry below, report its fold increase in uPA activity relative to amiloride value.
Molecular target: uPA (Homo sapiens, UniProt P00749)
Conditions: from Ki values
The answer is to be given in fold; state only the numeric part.

## Input State the recorded fold increase in uPA activity relative to amiloride for this entry: "N=C(N)NC(=O)c1nc(-c2cccs2)c(N)nc1N"
## Output 2

## Input Recorded fold increase in uPA activity relative to amiloride of "COc1ccc(-c2nc(C(=O)NC(=N)N)c(N)nc2N)c(OC)n1" , please.
## Output 2

## Input So what does the record say about fold increase in uPA activity relative to amiloride for "N=C(N)NC(=O)c1nc(-c2ccco2)c(N)nc1N" ?
## Output 3.3

## Input Return reported fold increase in uPA activity relative to amiloride; argument: "N=C(N)NC(=O)c1nc(-c2cc3ccccc3s2)c(N)nc1N"
## Output 1.7
